# human factor XIa (Homo sapiens): IC50 values follow
# Sequence (P03951 388-625 limits assumed): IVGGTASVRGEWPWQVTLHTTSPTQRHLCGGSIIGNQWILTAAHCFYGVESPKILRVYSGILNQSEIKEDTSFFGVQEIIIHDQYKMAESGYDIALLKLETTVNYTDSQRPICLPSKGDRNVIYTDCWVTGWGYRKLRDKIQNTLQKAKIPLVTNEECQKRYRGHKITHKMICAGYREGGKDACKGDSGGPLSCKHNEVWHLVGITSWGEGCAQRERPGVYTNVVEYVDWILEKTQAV
# Sequence (P03951 19-387 partner limits assumed): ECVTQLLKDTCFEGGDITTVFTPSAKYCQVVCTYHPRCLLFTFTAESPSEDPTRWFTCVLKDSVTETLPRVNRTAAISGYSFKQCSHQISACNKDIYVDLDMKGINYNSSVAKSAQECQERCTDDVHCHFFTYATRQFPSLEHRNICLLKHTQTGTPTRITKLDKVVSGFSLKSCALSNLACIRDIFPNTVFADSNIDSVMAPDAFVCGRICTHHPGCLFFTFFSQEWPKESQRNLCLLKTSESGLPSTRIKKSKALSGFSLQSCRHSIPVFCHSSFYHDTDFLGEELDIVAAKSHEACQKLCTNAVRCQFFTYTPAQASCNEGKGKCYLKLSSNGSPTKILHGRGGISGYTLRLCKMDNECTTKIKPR
reported.endpoint: IC50 (µM)

1. Nc1c(C(=O)N2CCC[C@@]3(C2)OC(=O)Nc2ccc(Cl)c(F)c23)cnn1C1(C(F)(F)F)CCOCC1
2. CCC(C1CCOCC1)n1ncc(C(=O)N2CCC[C@@]3(C2)OC(=O)Nc2ccc(Cl)c(F)c23)c1N (single isomer, unassigned)
3. CC(=O)Nc1cccc(-n2ncc(C(=O)N3CCC[C@@]4(C3)OC(=O)Nc3ccc(Cl)c(F)c34)c2N)c1
Task item: Place the item with the largest IC50 first, then continue in falling order, using the list above. Output spec: labels arranged per the requested ranking.
Reply: 3, 1, 2

* * *

# study.system: Human plasma kallikrein (Homo sapiens, UniProt P03952)
# Construct: yields a heavy chain (371 amino acids) and a light chain (248 amino acids); The active site of plasma kallikrein is contained in the light chain
# Sequence (P03952 391-638 limits assumed): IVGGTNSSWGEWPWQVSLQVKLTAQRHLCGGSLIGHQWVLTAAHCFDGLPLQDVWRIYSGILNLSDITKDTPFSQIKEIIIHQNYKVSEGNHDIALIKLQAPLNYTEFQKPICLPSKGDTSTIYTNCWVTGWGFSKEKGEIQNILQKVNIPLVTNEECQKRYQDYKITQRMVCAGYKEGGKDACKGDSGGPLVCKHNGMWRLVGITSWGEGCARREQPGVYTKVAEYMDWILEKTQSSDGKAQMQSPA
# Sequence (P03952 20-390 partner limits assumed): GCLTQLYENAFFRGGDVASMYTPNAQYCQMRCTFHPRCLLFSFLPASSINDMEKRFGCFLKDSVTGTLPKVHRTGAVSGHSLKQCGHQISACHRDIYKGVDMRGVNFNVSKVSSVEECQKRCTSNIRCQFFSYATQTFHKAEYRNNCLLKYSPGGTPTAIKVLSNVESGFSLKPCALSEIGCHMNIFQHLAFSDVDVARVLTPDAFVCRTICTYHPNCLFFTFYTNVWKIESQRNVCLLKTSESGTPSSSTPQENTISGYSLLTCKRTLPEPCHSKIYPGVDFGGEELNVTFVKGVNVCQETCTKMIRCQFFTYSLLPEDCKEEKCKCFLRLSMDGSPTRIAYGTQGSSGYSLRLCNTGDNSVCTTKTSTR
# test.details: Plasma Kallikrein Assay
# study.conditions: purified Human plasma kallikrein 0.5 nM, substrate Acetyl-K-P-R-AFC, HEPES pH 7.4; read-out: PKal IC50
pIC50: −log10 of the molar value.
reported.endpoint: pIC50

Example results:
# compound, recorded.result
rows = [
    ("Nc1c(C(=O)N2CCC[C@@]3(C2)OC(=O)Nc2ccc(Cl)c(F)c23)cnn1Cc1cccc(F)c1", 9.05),
    ("COc1ccc(-n2ncc(C(=O)N3CCC[C@@]4(C3)OC(=O)Nc3ccc(Cl)c(F)c34)c2N)cc1", 7.40),
    ("CC1(n2ncc(C(=O)N3CCC[C@@]4(C3)OC(=O)Nc3ccc(Cl)c(F)c34)c2N)CCS(=O)(=O)C1 (single isomer, unassigned) [Example 119]", 7.68),
    ("Nc1c(C(=O)N2CCC[C@@]3(C2)OC(=O)Nc2ccc(Cl)c(F)c23)cnn1-c1c(F)cccc1F", 7.98),
]

A. COc1cccnc1-n1ncc(C(=O)N2CCC[C@@]3(C2)OC(=O)Nc2ccc(Cl)c(F)c23)c1N
B. Nc1c(C(=O)N2CCC[C@@]3(C2)OC(=O)Nc2ccc(Cl)c(F)c23)cnn1Cc1ccc(C(F)(F)F)nc1
Task item: Choose between A and B : whose measured pIC50 value is numerically larger? Returns: label corresponding to the selected item.
Reply: B
(B: 8.10, A: 7.40)

* * *

# study.system: Human plasma kallikrein (Homo sapiens, UniProt P03952)
# Construct: yields a heavy chain (371 amino acids) and a light chain (248 amino acids); The active site of plasma kallikrein is contained in the light chain
# test.details: Plasma Kallikrein Assay
# study.conditions: purified Human plasma kallikrein 0.5 nM, substrate Acetyl-K-P-R-AFC, HEPES pH 7.4; read-out: PKal IC50
pIC50: −log10 of the molar value.
reported.endpoint: pIC50

# compound, pIC50
data = [
    ("Nc1c(C(=O)N2CCC[C@@]3(C2)OC(=O)Nc2ccc(Cl)c(F)c23)cnn1CC(F)(F)C(F)(F)F", 7.88),
]

P. Nc1c(C(=O)N2CCC[C@@]3(C2)OC(=O)Nc2ccc(Cl)c(F)c23)cnn1-c1ncccc1F
Q. Nc1c(C(=O)N2CCC[C@@]3(C2)OC(=O)Nc2ccc(Cl)c(F)c23)cnn1C(c1ccccc1)C(F)(F)F (single isomer, unassigned) [Example 123]
R. Nc1c(C(=O)N2CCC[C@@]3(C2)OC(=O)Nc2ccc(Cl)c(F)c23)cnn1-c1ccc(Cl)cc1Cl
S. Nc1c(C(=O)N2CCC[C@@]3(C2)OC(=O)Nc2ccc(Cl)c(F)c23)cnn1C1(C(F)(F)F)CCC1
T. COc1ccccc1Cn1ncc(C(=O)N2CCC[C@@]3(C2)OC(=O)Nc2ccc(Cl)c(F)c23)c1N
Task item: Your job: order these 5 records by pIC50, ascending. Output spec: labels arranged per the requested ranking.
Reply: R, P, S, T, Q
(R: 7.43, P: 7.64, S: 8.20, T: 8.64, Q: 9.05)

A. Nc1c(C(=O)N2CCC[C@@]3(C2)OC(=O)Nc2ccc(Cl)c(F)c23)cnn1CC(F)(F)F
B. Nc1c(C(=O)N2CCC[C@@]3(C2)OC(=O)Nc2ccc(Cl)c(F)c23)cnn1Cc1cccc(C(F)(F)F)c1
Task item: Field: lower pIC50 | Options: A / B Returns: label corresponding to the selected item.
Reply: A

A. Cc1cccc(-n2ncc(C(=O)N3CCC[C@@]4(C3)OC(=O)Nc3ccc(Cl)c(F)c34)c2N)c1C
B. Nc1c(C(=O)N2CCC[C@@]3(C2)OC(=O)Nc2ccc(Cl)c(F)c23)cnn1C1(C(F)(F)F)CC[C@@H]2C[C@@H]21 (single isomer, unassigned)
Task item: Field: lower pIC50 | Options: A / B Returns: label corresponding to the selected item.
Reply: A

1. Nc1c(C(=O)N2CCC[C@@]3(C2)OC(=O)Nc2ccc(Cl)c(F)c23)cnn1C1CCOCC1
2. COCCn1ncc(C(=O)N2CCC[C@@]3(C2)OC(=O)Nc2ccc(Cl)c(F)c23)c1N
Task item: Field: lower pIC50 | Options: 1 / 2 Returns: label corresponding to the selected item.
Reply: 1

* * *

# study.system: Human plasma kallikrein (Homo sapiens)
# Construct: yields a heavy chain (371 amino acids) and a light chain (248 amino acids); The active site of plasma kallikrein is contained in the light chain
# test.details: Plasma Kallikrein Assay
# study.conditions: purified Human plasma kallikrein 0.5 nM, substrate Acetyl-K-P-R-AFC, HEPES pH 7.4; read-out: PKal IC50
reported.endpoint: IC50 (nM)

Example results:
# mol.smiles, units, IC50
records = [
    ("Cc1cnccc1-n1ncc(C(=O)N2CCC[C@@]3(C2)OC(=O)Nc2ccc(Cl)c(F)c23)c1N", "nM", 13.2),
    ("CC(C)OCCn1ncc(C(=O)N2CCC[C@@]3(C2)OC(=O)Nc2ccc(Cl)c(F)c23)c1N", "nM", 12.6),
]

a. Nc1c(C(=O)N2CCC[C@@]3(C2)OC(=O)Nc2ccc(Cl)c(F)c23)cnn1C1CCCC1
b. CCn1ncc(C(=O)N2CCC[C@@]3(C2)OC(=O)Nc2ccc(Cl)c(F)c23)c1N
Task item: Choose between a and b : whose measured IC50 value is numerically larger? Returns: label corresponding to the selected item.
Reply: b
(b: 24.8 nM, a: 15.3 nM)

* * *

# human factor XIa (Homo sapiens): pIC50 values follow
pIC50: −log10 of the molar value.
reported.endpoint: pIC50

A. Nc1c(C(=O)N2CCC[C@@]3(C2)OC(=O)Nc2ccc(Cl)c(F)c23)cnn1-c1ccccc1OC(F)(F)F [Example 72]
B. Nc1c(C(=O)N2CCC[C@@]3(C2)OC(=O)Nc2ccc(Cl)c(F)c23)cnn1-c1cccc(C(=O)O)c1 [Example 68]
C. Nc1c(C(=O)N2CCC[C@@]3(C2)OC(=O)Nc2ccc(Cl)c(F)c23)cnn1Cc1ccc(C(F)(F)F)nc1 [Example 43]
Task item: Hey, quick one: sort these by pIC50, low to high? Output spec: labels arranged per the requested ranking.
Reply: B, C, A
(B: 5.83, C: 6.04, A: 6.58)

P. Nc1c(C(=O)N2CCC[C@@]3(C2)OC(=O)Nc2ccc(Cl)c(F)c23)cnn1-c1ccccc1C(F)(F)F [Example 77]
Q. CCC(n1ncc(C(=O)N2CC(C)(C)C[C@@]3(C2)OC(=O)Nc2ccc(Cl)c(F)c23)c1N)C(F)(F)F (single isomer, unassigned) [Example 131]
Task item: Choose between P and Q : whose measured pIC50 value is numerically larger? Returns: label corresponding to the selected item.
Reply: Q
(Q: 7.15, P: 6.40)

a. CC(C)(n1ncc(C(=O)N2CCC[C@@]3(C2)OC(=O)Nc2ccc(Cl)c(F)c23)c1N)C(F)(F)F [Example 49]
b. Nc1c(C(=O)N2CCC[C@@]3(C2)OC(=O)Nc2ccc(Cl)c(F)c23)cnn1-c1ccc2cn[nH]c2c1 [Example 59]
c. CC1(C)CN(C(=O)c2cnn(CC(F)(F)F)c2N)C[C@]2(C1)OC(=O)Nc1ccc(Cl)c(F)c12 [Example 2]
d. COc1cc(F)ccc1-n1ncc(C(=O)N2CCC[C@@]3(C2)OC(=O)Nc2ccc(Cl)c(F)c23)c1N [Example 100]
Task item: Your job: order these 4 records by pIC50, ascending. Output spec: labels arranged per the requested ranking.
Reply: a, b, d, c

P. COc1ccc(Cl)cc1-n1ncc(C(=O)N2CCC[C@@]3(C2)OC(=O)Nc2ccc(Cl)c(F)c23)c1N [Example 94]
Q. COc1ccc(-n2ncc(C(=O)N3CCC[C@@]4(C3)OC(=O)Nc3ccc(Cl)c(F)c34)c2N)cc1 [Example 58]
Task item: Choose between P and Q : whose measured pIC50 value is numerically larger? Returns: label corresponding to the selected item.
Reply: P

P. CC(C)n1ncc(C(=O)N2CCC[C@@]3(C2)OC(=O)Nc2ccc(Cl)c(F)c23)c1N [Example 34]
Q. Nc1c(C(=O)N2CCC[C@@]3(C2)OC(=O)Nc2ccc(Cl)c(F)c23)cnn1Cc1cccc(Cl)c1 [Example 6]
R. Cc1ccc(-n2ncc(C(=O)N3CCC[C@@]4(C3)OC(=O)Nc3ccc(Cl)c(F)c34)c2N)c(C)c1 [Example 86]
Task item: // sort entries: pIC50, high to low Output spec: labels arranged per the requested ranking.
Reply: Q, R, P
(Q: 6.75, R: 6.19, P: 5.92)

a. Nc1c(C(=O)N2CCC[C@@]3(C2)OC(=O)Nc2ccc(Cl)c(F)c23)cnn1-c1ccccc1OC(F)F [Example 90]
b. Nc1c(C(=O)N2CCC[C@@]3(C2)OC(=O)Nc2ccc(Cl)c(F)c23)cnn1-c1ccccc1F [Example 84]
c. CCn1ncc(C(=O)N2CCC[C@@]3(C2)OC(=O)Nc2ccc(Cl)c(F)c23)c1N [Example 25]
d. Nc1c(C(=O)N2CCC[C@@]3(C2)OC(=O)Nc2ccc(Cl)c(F)c23)cnn1CC1(C(F)(F)F)CC1 [Example 26]
Task item: Your job: order these 4 records by pIC50, ascending. Output spec: labels arranged per the requested ranking.
Reply: c, b, d, a
(c: 5.70, b: 6.03, d: 6.45, a: 6.67)

A. Cc1ccc(C)c(-n2ncc(C(=O)N3CCC[C@@]4(C3)OC(=O)Nc3ccc(Cl)c(F)c34)c2N)c1 [Example 87]
B. Cc1ccc(Cn2ncc(C(=O)N3CCC[C@@]4(C3)OC(=O)Nc3ccc(Cl)c(F)c34)c2N)cc1 [Example 7]
Task item: Field: lower pIC50 | Options: A / B Returns: label corresponding to the selected item.
Reply: A

I. Nc1c(C(=O)N2CCC[C@@]3(C2)OC(=O)Nc2ccc(Cl)c(F)c23)cnn1C1CCCC1 [Example 22]
II. Cc1cccc(Cn2ncc(C(=O)N3CCC[C@@]4(C3)OC(=O)Nc3ccc(Cl)c(F)c34)c2N)c1 [Example 45]
III. Nc1c(C(=O)N2CCC[C@@]3(C2)OC(=O)Nc2ccc(Cl)c(F)c23)cnn1Cc1cccc(F)c1 [Example 9]
IV. Cc1cnccc1-n1ncc(C(=O)N2CCC[C@@]3(C2)OC(=O)Nc2ccc(Cl)c(F)c23)c1N [Example 105]
V. Nc1c(C(=O)N2CCC[C@@]3(C2)OC(=O)Nc2ccc(Cl)c(F)c23)cnn1-c1c(Cl)cncc1Cl [Example 102]
Task item: Your job: order these 5 records by pIC50, ascending. Output spec: labels arranged per the requested ranking.
Reply: I, IV, III, II, V
(I: 5.95, IV: 6.38, III: 6.60, II: 6.81, V: 7.92)
